From: the supplement of paper PMC10567573

B1: CHMP4C (parent)
chain: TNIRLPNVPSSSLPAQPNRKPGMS

- Variants of: B1
- protocol_summary: protein stability index of a GFP-peptide fusion (GPS, HEK-293T) (PSI 1-6); higher = more stable;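 further: lentivirally expressed fusions sorted by FACS into six bins by GFP to DsRed ratio, PSI derived from sequencing read proportions per bin multiplied by bin number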
- applied_conditions: c terminus: a fixed tail appended
Overview of recorded protein stability index for various variants
Enter a number only.

P17T : 4.75
P6F : 3.28
R4N : 2.96

Recorded protein stability index for `Q16I` , please? 4.35

What do you get for `R4A` ? 4.79

Thanks! And `S12H` ? 4.35

Now the variant `N18T` 4.89

Try this variant next: `N7M` 4.82
